Reference source for all entries: ChEMBL document CHEMBL1142449

# Target Entity: Neurotensin receptor type 1 (Homo sapiens, UniProt P30989, F136A)
# Sequence (P30989 whole entry F136A): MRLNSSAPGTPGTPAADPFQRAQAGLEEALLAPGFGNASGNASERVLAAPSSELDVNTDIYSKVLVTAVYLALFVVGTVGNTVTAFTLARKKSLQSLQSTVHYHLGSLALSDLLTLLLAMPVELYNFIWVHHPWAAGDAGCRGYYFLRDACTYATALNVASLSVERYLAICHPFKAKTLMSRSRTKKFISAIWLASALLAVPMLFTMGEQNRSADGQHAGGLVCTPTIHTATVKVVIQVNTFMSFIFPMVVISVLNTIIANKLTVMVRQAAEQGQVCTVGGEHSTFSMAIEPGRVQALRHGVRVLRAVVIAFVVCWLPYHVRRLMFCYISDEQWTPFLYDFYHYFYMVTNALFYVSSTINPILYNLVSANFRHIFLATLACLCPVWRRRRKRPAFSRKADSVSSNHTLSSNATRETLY
# Assay Details: Displacement of [3H]SR48692 from human NTR1 extracellular loop 1 F136A mutant expressed in HEK293 cells
Experimental Endpoint: pKd
Numbers only, as −log10 of the molar value.

If you can, please state the reported pKd value of COc1cccc(OC)c1-c1cc(C(=O)NC2(C(=O)O)C3CC4CC(C3)CC2C4)nn1-c1ccnc2cc(Cl)ccc12 (stereo unspecified) [REMINERTANT] .
7.48

###

# Target Entity: Neurotensin receptor type 1 (Homo sapiens, UniProt P30989, P133A)
# Assay Details: Displacement of [3H]SR48692 from human NTR1 extracellular loop 1 P133A mutant expressed in HEK293 cells
# Assay type: cell-based
Experimental Endpoint: pKd
Numbers only, as −log10 of the molar value.

If you can, please state the reported pKd value of COc1cccc(OC)c1-c1cc(C(=O)NC2(C(=O)O)C3CC4CC(C3)CC2C4)nn1-c1ccnc2cc(Cl)ccc12 (stereo unspecified) .
8.04
